Data provenance is patent US9856298B2.

Assay: mouse serum (100%)
Settings: 37° C., up to 6 hours
experimental_readout: cleaved bond

[[record]]
substance = "Guan-ONO(sPEG^750-GAARSG)RPVYIPRPRPPHPRL-OH"
test_value = "R-S"

[[record]]
substance = "Guan-OO(sPEG^750-GAARSG)NRPVYIPRPRPPHPRL-OH"
test_value = "R-S"

[[record]]
substance = "Guan-ONO(sPEG^750-GRSG)RPVYIPRPRPPHPRL-OH"
test_value = "R-S"

[[record]]
substance = "Guan-OO(sPEG^750-GARSG)NRPVYIPRPRPPHPRL-OH"
test_value = "R-S"

[[record]]
substance = "sPEG^750-GAR-VDKPPYLPRPRPPROIYNO-NH2"
test_value = "R-V"

[[record]]
substance = "Guan-ONO(tPEG^750-GARSG)RPVYIPRPRPPHPRL-OH"
test_value = "R-S"

[[record]]
substance = "Guan-ONO(tPEG^5000-GARSG)RPVYIPRPRPPHPRL-OH"
test_value = "R-S"

[[record]]
substance = "tPEG^5000-GAR-VDKPPYLPRPRPPROIYNO-NH2"
test_value = "R-V"

[[record]]
substance = "Guan-OO(tPEG^5000-GAARSG)NRPVYIPRPRPPHPRL-OH"
test_value = "R-S"

[[record]]
substance = "Guan-OO(tPEG^750-GARSG)NRPVYIPRPRPPHPRL-OH"
test_value = "R-S"

[[record]]
substance = "tPEG^750-GAR-VDKPPYLPRPRPHypRHypTleYNO-NH2"
test_value = "R-V"


---

Assay: mouse serum (100%)
Settings: 37° C., up to 6 hours
experimental_readout: cleaved bond

[[record]]
substance = "sPEG^750-GAR-VDKPPYLPRPRPHypRHypTleYNO-NH2"
test_value = "R-V"

[[record]]
substance = "Guan-ONO(tPEG^750-GRSG)RPVYIPRPRPPHPRL-OH"
test_value = "R-S"

[[record]]
substance = "Guan-OO(tPEG^750-GAARSG)NRPVYIPRPRPPHPRL-OH"
test_value = "R-S"

[[record]]
substance = "Guan-ONO(sPEG^750-GARSG)RPVYIPRPRPPHPRL-OH"
test_value = "R-S"

[[record]]
substance = "tPEG^750-GAR-VDKPPYLPRPRPPROIYNO-NH2"
test_value = "R-V"

[[record]]
substance = "Guan-OO(tPEG^5000-GRSG)NRPVYIPRPRPPHPRL-OH"
test_value = "R-S"

[[record]]
substance = "Guan-ONO(tPEG^5000-GAARSG)RPVYIPRPRPPHPRL-OH"
test_value = "R-S"

[[record]]
substance = "Guan-OO(tPEG^750-GRSG)NRPVYIPRPRPPHPRL-OH"
test_value = "R-S"

[[record]]
substance = "Guan-ONO(tPEG^5000-GRSG)RPVYIPRPRPPHPRL-OH"
test_value = "R-S"

[[record]]
substance = "Guan-OO(tPEG^5000-GARSG)NRPVYIPRPRPPHPRL-OH"
test_value = "R-S"

[[record]]
substance = "Guan-ONO(tPEG^750-GAARSG)RPVYIPRPRPPHPRL-OH"
test_value = "R-S"

[[record]]
substance = "Guan-OO(sPEG^750-GRSG)NRPVYIPRPRPPHPRL-OH"
test_value = "R-S"

